Data origin, for the record: patent US4060527A

assay: in vivo; details: mouse, iv
MEASURE: LD50 (mg/kg)
Please reply with the bare figure in mg/kg and do not write the unit itself.

Output LD50 of "Cc1c2ccccc2nc2c1ccc1ncc(C(=O)O)c(O)c12"
235

Output LD50 of "O=C(O)c1cnc2ccc3cc4ccccc4nc3c2c1O"
230

Output LD50 of "CCc1c2ccccc2nc2c1ccc1ncc(C(=O)O)c(O)c12"
186

Output LD50 of "Cc1ccc2nc3c(ccc4ncc(C(=O)O)c(O)c43)cc2c1"
256

Output LD50 of "Cc1cc2cc3ccccc3nc2c2c(O)c(C(=O)O)cnc12"
253

Output LD50 of "CCCCc1c2ccccc2nc2c1ccc1ncc(C(=O)O)c(O)c12"
215

Output LD50 of "O=C(O)c1cnc2ccc3c(-c4ccccc4)c4ccccc4nc3c2c1O"
245

* * *

tested on: Escherichia coli; assay: Antibacterial activity (MIC) against Escherichia coli as Gram-negative bacterium; format: cell-based; conditions: Escherichia coli; Table 3, class symbols; read-out: Antibacterial Activity (MIC) E. coli
Could you please report measured MIC for the items listed next?

Output MIC of "O=C(O)c1cnc2ccc3cc4cccc(O)c4nc3c2c1O"
0.09 to 1.25 µg/mL

Output MIC of "CCNc1cc2cc3ccccc3nc2c2c(O)c(C(=O)O)cnc12"
0.09 to 1.25 µg/mL

Output MIC of "O=C(O)c1cnc2ccc3c(O)c4ccccc4nc3c2c1O"
0.09 to 1.25 µg/mL

Output MIC of "O=C(O)c1cnc2ccc3c(Br)c4ccccc4nc3c2c1O"
0.09 to 1.25 µg/mL

Output MIC of "O=C(O)c1cnc2c(I)cc3cc4ccccc4nc3c2c1O"
0.09 to 1.25 µg/mL

Output MIC of "O=C(O)c1cnc2ccc3c(-c4ccccc4Br)c4ccccc4nc3c2c1O"
0.09 to 1.25 µg/mL

Output MIC of "CCc1c2ccccc2nc2c1ccc1ncc(C(=O)O)c(O)c12"
0.09 to 1.25 µg/mL

Output MIC of "O=C(O)c1cnc2c(O)cc3cc4ccccc4nc3c2c1O"
0.09 to 1.25 µg/mL

Output MIC of "O=C(O)c1cnc2ccc3cc4cc(CO)ccc4nc3c2c1O"
0.09 to 1.25 µg/mL

* * *

system: Escherichia coli; experiment: Antibacterial activity (MIC) against Escherichia coli as Gram-negative bacterium; assay type: cell-based; details: Table 1, bacteriocidal, read-out: Escherichia coli bacteriocidal action
MEASURE: MBC (µg/mL)
Please reply with the bare figure in µg/mL and do not write the unit itself.

For Escherichia coli, give MBC of the listed molecule: Cc1cc2cc3ccccc3nc2c2c(O)c(C(=O)O)cnc12 [Compound F-632]
1.25

For Escherichia coli, give MBC of the listed molecule: O=C(O)c1cnc2ccc3cc4ccccc4nc3c2c1O [Compound F-631]
1.25

For Escherichia coli, give MBC of the listed molecule: Cc1c2ccccc2nc2c1ccc1ncc(C(=O)O)c(O)c12 [Compound F-636]
2.5

For Escherichia coli, give MBC of the listed molecule: O=C(O)c1cnc2ccc3c(-c4ccccc4)c4ccccc4nc3c2c1O [Compound F-633]
1.25

For Escherichia coli, give MBC of the listed molecule: CCCCc1c2ccccc2nc2c1ccc1ncc(C(=O)O)c(O)c12 [Compound F-634]
0.62

For Escherichia coli, give MBC of the listed molecule: CCn1cc(C(=O)O)c(=O)c2ccc(C)nc21 [Nalidixic acid, reference compound]
6.25

For Escherichia coli, give MBC of the listed molecule: Cc1ccc2nc3c(ccc4ncc(C(=O)O)c(O)c43)cc2c1 [Compound F-637]
1.25

For Escherichia coli, give MBC of the listed molecule: CCc1c2ccccc2nc2c1ccc1ncc(C(=O)O)c(O)c12 [Compound F-635]
1.25

* * *

test system: Escherichia coli; experiment: Antibacterial activity (MIC) against Escherichia coli as Gram-negative bacterium; type: cell-based; conditions: Escherichia coli; Table 3, class symbols; read-out: Antibacterial Activity (MIC) E. coli
MEASURE: MIC

Output MIC of "O=C(O)c1cnc2ccc3cc4ccccc4nc3c2c1O"
0.09 to 1.25 µg/mL

Output MIC of "CS(=O)(=O)c1c2ccccc2nc2c1ccc1ncc(C(=O)O)c(O)c12"
0.09 to 1.25 µg/mL

Output MIC of "CSc1c2ccccc2nc2c1ccc1ncc(C(=O)O)c(O)c12"
0.09 to 1.25 µg/mL

Output MIC of "O=C(O)c1cnc2ccc3c(I)c4ccccc4nc3c2c1O"
0.09 to 1.25 µg/mL

Output MIC of "O=C(O)c1cnc2c(CO)cc3cc4ccccc4nc3c2c1O"
0.09 to 1.25 µg/mL

Output MIC of "O=C(O)c1cnc2ccc3cc4ccc([N+](=O)[O-])cc4nc3c2c1O"
0.09 to 1.25 µg/mL

Output MIC of "Nc1c2ccccc2nc2c1ccc1ncc(C(=O)O)c(O)c12"
1.25 to 2.5 µg/mL

Output MIC of "O=C(O)c1ccc2nc3c(ccc4ncc(C(=O)O)c(O)c43)cc2c1"
1.25 to 2.5 µg/mL

Output MIC of "CN(C)c1c2ccccc2nc2c1ccc1ncc(C(=O)O)c(O)c12"
0.09 to 1.25 µg/mL

Output MIC of "O=C(O)c1cnc2c(Br)cc3cc4ccccc4nc3c2c1O"
0.09 to 1.25 µg/mL

Output MIC of "CNc1c2ccccc2nc2c1ccc1ncc(C(=O)O)c(O)c12"
0.09 to 1.25 µg/mL

Output MIC of "CCNc1ccc2nc3c(ccc4ncc(C(=O)O)c(O)c43)cc2c1"
0.09 to 1.25 µg/mL

Output MIC of "C=CCc1c2ccccc2nc2c1ccc1ncc(C(=O)O)c(O)c12"
0.09 to 1.25 µg/mL

Output MIC of "C=Cc1c2ccccc2nc2c1ccc1ncc(C(=O)O)c(O)c12"
1.25 to 2.5 µg/mL

Output MIC of "CS(=O)(=O)c1ccc2nc3c(ccc4ncc(C(=O)O)c(O)c43)cc2c1"
0.09 to 1.25 µg/mL

Output MIC of "O=C(O)c1cnc2ccc3c(-c4ccc(I)cc4)c4ccccc4nc3c2c1O"
0.09 to 1.25 µg/mL

Output MIC of "NCc1cc2cc3ccccc3nc2c2c(O)c(C(=O)O)cnc12"
1.25 to 2.5 µg/mL

Output MIC of "O=C(O)c1cnc2c(N(CO)CO)cc3cc4ccccc4nc3c2c1O"
0.09 to 1.25 µg/mL

Output MIC of "Cc1c2ccccc2nc2c1ccc1ncc(C(=O)O)c(O)c12"
0.09 to 1.25 µg/mL

* * *

system: Staphylococcus aureus; assay: Antibacterial activity (MIC) against Staphylococcus aureus as Gram-positive bacterium; type: cell-based; details: Table 1, bacteriocidal, read-out: Staphylococcus aureus bacteriocidal action
MEASURE: MBC (µg/mL)
Please reply with the bare figure in µg/mL and do not write the unit itself.

Output MBC of O=C(O)c1cnc2ccc3cc4ccccc4nc3c2c1O [Compound F-631]
1.25

Output MBC of O=C(O)c1cnc2ccc3c(-c4ccccc4)c4ccccc4nc3c2c1O [Compound F-633]
1.25

Output MBC of Cc1ccc2nc3c(ccc4ncc(C(=O)O)c(O)c43)cc2c1 [Compound F-637]
2.5

Output MBC of Cc1c2ccccc2nc2c1ccc1ncc(C(=O)O)c(O)c12 [Compound F-636]
1.25

Output MBC of Cc1cc2cc3ccccc3nc2c2c(O)c(C(=O)O)cnc12 [Compound F-632]
2.5

Output MBC of CCc1c2ccccc2nc2c1ccc1ncc(C(=O)O)c(O)c12 [Compound F-635]
0.62

Output MBC of CCCCc1c2ccccc2nc2c1ccc1ncc(C(=O)O)c(O)c12 [Compound F-634]
0.25
